Data origin: paper PMC6030940

# System: Pgp
# test: Bidirectional transport across MDCK-MDR1 cell monolayer
# conditionDescription: dog, MDCK-MDR1, pH 7.4
measurementType: Papp B→A at 120 min, 10 µM (×10⁻⁶ cm/s)
State just the number; it will be interpreted in ×10⁻⁶ cm/s.

Q: Identify the measured Papp B→A at 120 min, 10 µM of `COc1ccc2cc3[n+](cc2c1OC)CCc1cc2c(cc1-3)OCO2` for Pgp.
Result: 2.85

====

# System: P-gp (MDR1)
# test: Bidirectional transport across MDCK-MDR1 cell monolayer
# conditionDescription: dog, MDCK-MDR1, pH 7.4
measurementType: efflux ratio at 120 min, 10 µM
# respond with the number and nothing more

Q: Requested read-out: efflux ratio at 120 min, 10 µM. Entry: COc1ccc2cc3[n+](cc2c1OC)CCc1cc2c(cc1-3)OCO2 [BBR, Berberine]
Result: 7.12
